- experimental_system: UniProtKB P21980
- Sequence (P21980 whole entry): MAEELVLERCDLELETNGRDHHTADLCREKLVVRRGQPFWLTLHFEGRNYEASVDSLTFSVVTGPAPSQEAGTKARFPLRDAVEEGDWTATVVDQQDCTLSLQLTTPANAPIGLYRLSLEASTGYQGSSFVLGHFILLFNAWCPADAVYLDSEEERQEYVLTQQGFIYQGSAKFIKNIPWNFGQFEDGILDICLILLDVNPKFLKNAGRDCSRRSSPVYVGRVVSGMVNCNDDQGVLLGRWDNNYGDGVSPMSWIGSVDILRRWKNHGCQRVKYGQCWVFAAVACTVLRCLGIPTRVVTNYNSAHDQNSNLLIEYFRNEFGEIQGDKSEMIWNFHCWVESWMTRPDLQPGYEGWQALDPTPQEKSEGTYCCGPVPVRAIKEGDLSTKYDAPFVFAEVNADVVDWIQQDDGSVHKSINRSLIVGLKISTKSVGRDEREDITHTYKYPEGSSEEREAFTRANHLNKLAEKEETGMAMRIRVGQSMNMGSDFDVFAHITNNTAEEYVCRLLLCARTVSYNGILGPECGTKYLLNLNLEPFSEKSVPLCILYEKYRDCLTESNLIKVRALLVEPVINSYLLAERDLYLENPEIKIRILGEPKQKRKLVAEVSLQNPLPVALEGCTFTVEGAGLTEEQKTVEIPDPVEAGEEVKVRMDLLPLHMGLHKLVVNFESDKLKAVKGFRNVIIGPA
- procedure_details: Inhibitory activity against TG2 (isopeptidase assay), Tables 3 and 4
- Type: biochemical
- condition_notes: Table 4; read-out: TG2 IC50
*1 amine or outer side, *2 acyl side, *3 side chain or, on linkers, in order; H or OH if unused. Where a SMILES comes first, the peptide text is derived from it. [ ]: non-standard residue; d: D form. The star is where a group is joined. ξ: configuration not given here. X1 = COC(=O)/C=C/CC[C@H](N[*:1])C(=O)[*:2]; Thr(3ξ) = CC(O)[C@H](N)C(=O)O; Nle = CCCC[C@H](N)C(=O)O; ξV = CC(C)C(N)C(=O)O; Alloc = C=CCOC(=O)*
measure: pIC50
Give bare numbers, as −log10 of the molar value.

Some compounds with recorded pIC50:
>  <compound>
CCCC[C@H](NC(=O)[C@H](CC/C=C/C(=O)OC)NC(=O)[C@@H](CC(=O)O)NC(C)=O)C(=O)N[C@@H](CCCC)C(=O)N[C@@H](CC(C)C)C(=O)N1CCC[C@H]1C(=O)N[C@@H](Cc1c[nH]c2ccccc12)C(=O)N1CCC[C@H]1C(=O)O [Ref. 22, reference compound] (Ac-[dD][X1][Nle][Nle]LPWP-OH)

>  <experimental_system>
UniProtKB P21980

>  <measure>
pIC50

>  <measured_result>
5.53

$$$$
>  <compound>
C=CCOC(=O)NCCCC[C@H](NC(=O)[C@H](CC(C)C)NC(=O)[C@H](CC(C)C)NC(=O)[C@@H](NC(=O)[C@H](CC(C)C)NC(=O)[C@@H]1CCCN1C(=O)[C@H](CO)NC(=O)C(NC(=O)[C@H](CCC(N)=O)NC(=O)[C@H](CCC(=O)O)NC(=O)[C@H](CC/C=C/C(=O)OC)NC(=O)[C@H](CC(N)=O)NC(C)=O)C(C)C)C(C)O)C(=O)O (stereo partly shown) [Ref. 24, reference compound] (Ac-N[X1]EQ[ξV]SPL[Thr(3ξ)]LLK(Alloc)-OH)

>  <experimental_system>
UniProtKB P21980

>  <measure>
pIC50

>  <measured_result>
6.77

$$$$
>  <compound>
COC(=O)/C=C/CC[C@H](NC(=O)[C@H](CC(N)=O)NC(C)=O)C(=O)N[C@@H](CCC(=O)O)C(=O)N[C@@H](CCC(N)=O)C(=O)N[C@H](C(=O)N[C@@H](CO)C(=O)N1CCC[C@H]1C(=O)N[C@@H](CC(C)C)C(=O)N[C@H](C(=O)O)C(C)O)C(C)C (stereo partly shown) [Ref. 20, reference compound] (Ac-N[X1]EQVSPL[Thr(3ξ)]-OH)

>  <experimental_system>
UniProtKB P21980

>  <measure>
pIC50

>  <measured_result>
6.42

$$$$

With those in mind, consider the next compound.
IN: Recorded pIC50 of COC(=O)/C=C/CC[C@H](NC(=O)[C@H](CC(N)=O)NC(C)=O)C(=O)N[C@@H](CCC(=O)O)C(=O)N[C@@H](CCC(N)=O)C(=O)N[C@H](C(=O)N[C@@H](CO)C(=O)N1CCC[C@H]1C(=O)N[C@@H](CC(C)C)C(=O)N[C@H](C(=O)N[C@@H](CC(C)C)C(=O)N[C@@H](CC(C)C)C(=O)N[C@@H](CCCCN)C(=O)O)C(C)O)C(C)C (stereo partly shown) [Ref. 17, reference compound] (Ac-N[X1]EQVSPL[Thr(3ξ)]LLK-OH) , please.
OUT: 6.64
